assay: chemical genetic growth profiling, strain panel (AID 1159580);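 further: tested at 20 µM; growth read once vehicle control cultures reached saturation at 30 °C; 1 = growth at the plate median or of vehicle wells; lower values mean less growth of the strain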; conditions: S. cerevisiae deletion strains, growth OD, locus YGR229C, strain SMI1, stronger effect = lower value
In all, about 5,500 compounds went through this assay and about 2,000 (36%) were called active. Roughly 18% stayed inconclusive and do not appear here. The list shows a part of the results.
Please go through the items and note down their normalized growth.

Challenge: Which normalized growth value belongs to CCOP(=S)(OCC)Oc1cc(C)nc(C(C)C)n1 ?
Response given: 0.991 (inactive)

Challenge: May I ask what normalized growth has been recorded for CNCc1ccccc1 ?
Response given: 0.986 (inactive)

Challenge: Quick check: normalized growth of C[C@@H]1OC(O[C@H]2[C@H](O)[C@@H](O)[C@H](OC[C@H]3O[C@@H](OC(=O)[C@]45CCC(C)(C)CC4C4=CCC6[C@@]7(C)CC[C@H](OC8OC[C@H](O)[C@H](O)[C@H]8OC8O[C@@H](C)[C@H](O)[C@@H](O)[C@H]8O)[C@@](C)(CO)C7CC[C@@]6(C)[C@]4(C)CC5)[C@H](O)[C@@H](O)[C@@H]3O)O[C@@H]2CO)[C@H](O)[C@H](O)[C@H]1O (stereo partly specified) ?
Response given: 1.01 (inactive)

Challenge: Which normalized growth is listed for N#CC(NCc1ccccc1)c1ccc(Cl)c(Cl)c1 (stereo unspecified) ?
Response given: 0.989 (inactive)

Challenge: Need normalized growth, item CC(=O)O[C@H]1CC[C@@]2(C)C(CC[C@]3(C)C2C(=O)C=C2C4[C@@H](C)[C@H](C)CC[C@]4(C(=O)O)CC[C@]23C)C1(C)C (stereo partly specified)
Response given: 0.994 (inactive)

Challenge: Which normalized growth value belongs to CCOP(=S)(OCC)Oc1nc(Cl)c(Cl)cc1Cl ?
Response given: 0.98 (inactive)

* * *

assay: chemical genetic growth profiling, strain panel (AID 1159580);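 further: tested at 20 µM; growth read once vehicle control cultures reached saturation at 30 °C; 1 = growth at the plate median or of vehicle wells; lower values mean less growth of the strain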; conditions: S. cerevisiae deletion strains, growth OD, locus YML124C, strain tub3, stronger effect = lower value
About 2,000 (36%) of roughly 5,500 compounds were called active. Roughly 18% stayed inconclusive and do not appear here. The list shows a part of the results.
endpoint: normalized growth
Would you mind answering with just the numeric figure?

Challenge: Recorded normalized growth of CNCc1ccccc1 , please.
Response given: 0.983

Challenge: Recorded normalized growth of N#CC(O[C@@H]1O[C@H](CO[C@@H]2O[C@H](CO)[C@@H](O)[C@H](O)[C@H]2O)[C@@H](O)[C@H](O)[C@H]1O)c1ccccc1 (some centres undefined) , please.
Response given: 0.999

Challenge: What value of normalized growth has been reported for the following compound? COc1ccc2c(c1)c(CC(=O)O)c(C)n2C(=O)c1ccc(Cl)cc1
Response given: 0.981

Challenge: Which value of normalized growth has been reported for COc1cc(N)c(Cl)cc1C(=O)NC1CCN(Cc2ccccc2)CC1 in the records?
Response given: 0.996

* * *

test: chemical genetic growth profiling, strain panel (AID 1159580);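 further: tested at 20 µM; growth read once vehicle control cultures reached saturation at 30 °C; 1 = growth at the plate median or of vehicle wells; lower values mean less growth of the strain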; details: S. cerevisiae deletion strains, growth OD, locus YER155C, strain BEM2, stronger effect = lower value
Screen size: about 5,500 compounds; about 2,000 (36%) were called active. Not shown: some 18% with an inconclusive outcome. Some of the results follow.
endpoint: normalized growth
Give a plain numeric answer without units written out.

Challenge: What does the record list as normalized growth for COc1ccc2c(c1)c(CC(=O)O)c(C)n2C(=O)c1ccc(Cl)cc1 ?
Response given: 0.989

Challenge: I'd like to know its normalized growth. The compound in question is Cc1cc(O)cc(=O)o1
Response given: 0.982

Challenge: For the compound shown here, CC(=O)NCc1c(I)c(NC(C)=O)c(I)c(C(=O)O)c1I , give the reported normalized growth.
Response given: 0.998

Challenge: Request the reported normalized growth associated with CC(C)=CCCC1(C)C=Cc2c(O)c3c(c(CC=C(C)C)c2O1)OC12C(=CC4CC1C(C)(C)OC2(C/C=C(/C)C(=O)O)C4O)C3=O (configuration not stated)
Response given: 1.01

Challenge: Which normalized growth value is on record for CC1C(=O)OC2C1CCC1(C)C=CC(=O)C3(C)OC213 (configuration not stated) ?
Response given: 1

Challenge: Name the recorded normalized growth for O=C1C(O)=C(O)C(=O)C(O)=C1O .
Response given: 1

Challenge: Would you mind telling me what normalized growth value was observed for COC(=O)Nc1nc2ccc(Sc3ccccc3)cc2[nH]1 ?
Response given: 1

Challenge: I would be grateful if you could share the reported normalized growth for O=c1cc(CO)occ1O .
Response given: 1

Challenge: # input compound: CO[C@@]12[C@@H]3NC3CN1C1=C(C(=O)C(N)=C(C)C1=O)[C@@H]2COC(N)=O (some centres not stated) ; wanted: its normalized growth
Response given: 0.993

Challenge: Could you share which normalized growth value was measured for COC(=O)/C(C)=C\CC12OC(C)(C)C3CC(C=C4C(=O)c5c(O)c6c(c(CCC(C)(C)Cl)c5OC431)OC1(C)CCC(=C(C)C)C6C1)C2=O (configuration not stated) ?
Response given: 1.01

Challenge: I'd like to know its normalized growth. The compound in question is Cc1cc(O)cc(C)c1Cl
Response given: 0.992

Challenge: Item under review: CC(=O)NC(C(=O)O)C(C)(C)SN=O (configuration not stated) . Reported normalized growth?
Response given: 1

Challenge: I am curious: what normalized growth value has been reported for CC(C)(C#N)O[C@@H]1O[C@H](CO)[C@@H](O)[C@H](O)[C@H]1O ?
Response given: 0.99

Challenge: Given the compound Cc1ccc(-c2cc(C(F)(F)F)nn2-c2ccc(S(N)(=O)=O)cc2)cc1 , what is its reported normalized growth?
Response given: 1.01

Challenge: Report normalized growth for COc1cc(N)c(Cl)cc1C(=O)NC1CCN(Cc2ccccc2)CC1 please.
Response given: 0.982

Challenge: What normalized growth value was documented for this compound, Nc1ccccc1C(=O)CC(N)C(=O)O (configuration not stated) ?
Response given: 0.997

Challenge: Tell me the measured normalized growth of NC(Cc1c[nH]c2ccccc12)C(=O)O (configuration not stated) , please.
Response given: 1.01
